Give phosphorylation enrichment for every item shown.
system.name: Jak2 (UniProt O60674)
Sequence (O60674 whole entry, looked up): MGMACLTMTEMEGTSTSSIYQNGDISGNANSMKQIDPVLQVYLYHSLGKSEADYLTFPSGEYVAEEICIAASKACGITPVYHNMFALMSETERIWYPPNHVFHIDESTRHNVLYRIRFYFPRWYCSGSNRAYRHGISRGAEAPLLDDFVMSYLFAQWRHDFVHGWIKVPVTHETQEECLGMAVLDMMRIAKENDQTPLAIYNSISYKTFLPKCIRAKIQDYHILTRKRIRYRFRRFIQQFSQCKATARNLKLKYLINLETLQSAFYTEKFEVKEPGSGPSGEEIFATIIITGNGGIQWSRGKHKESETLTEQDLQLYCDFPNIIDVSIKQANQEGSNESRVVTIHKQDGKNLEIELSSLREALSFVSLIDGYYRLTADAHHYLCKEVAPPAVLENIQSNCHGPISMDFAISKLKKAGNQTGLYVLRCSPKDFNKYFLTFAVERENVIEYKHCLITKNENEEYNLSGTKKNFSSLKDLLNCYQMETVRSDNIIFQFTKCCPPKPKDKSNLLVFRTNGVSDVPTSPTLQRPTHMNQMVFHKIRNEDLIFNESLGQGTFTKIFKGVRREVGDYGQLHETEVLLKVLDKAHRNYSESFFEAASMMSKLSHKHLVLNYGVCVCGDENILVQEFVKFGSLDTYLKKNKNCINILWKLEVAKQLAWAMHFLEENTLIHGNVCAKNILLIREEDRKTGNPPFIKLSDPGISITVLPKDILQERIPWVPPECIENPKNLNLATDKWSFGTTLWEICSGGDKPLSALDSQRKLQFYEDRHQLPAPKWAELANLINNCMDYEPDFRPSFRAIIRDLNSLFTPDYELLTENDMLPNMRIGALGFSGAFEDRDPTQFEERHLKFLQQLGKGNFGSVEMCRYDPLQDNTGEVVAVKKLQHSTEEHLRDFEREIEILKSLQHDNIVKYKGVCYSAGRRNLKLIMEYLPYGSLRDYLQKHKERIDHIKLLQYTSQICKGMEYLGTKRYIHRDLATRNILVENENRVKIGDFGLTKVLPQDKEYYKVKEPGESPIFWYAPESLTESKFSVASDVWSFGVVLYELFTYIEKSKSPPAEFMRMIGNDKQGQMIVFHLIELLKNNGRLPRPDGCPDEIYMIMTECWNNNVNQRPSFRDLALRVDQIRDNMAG
method: phosphorylation enrichment, bacterial display (enrichment ratio); higher = better substrate or ligand; peptides without Tyr show the background;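 note: 11-residue human phosphosite peptides and single-mutation variants displayed on the E. coli surface, counted by deep sequencing, each peptide's frequency after selection divided by its frequency in the unselected input library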;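 note: frequency after pTyr selection over input frequency; kinase dosed for 20-30% of maximal phosphorylation in three min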

Some sequences with known phosphorylation enrichment results, for comparison:
Reported phosphorylation enrichment for RLLVVYPWTQG [HBG2_Y36_R41G] : what is it?
0.987

Now try MGRVNYGAYIN [GLB1_Y485] .
0.54

Now try MANYVYKAGPS [MAML2_Y515_M514V] .
0.452

Now try SGFESYGSSSS [RPA2_Y9_Y14S] .
0.555

Hey, can you go through the list below and give me phosphorylation enrichment for every item?
1. IEENGYNTFAS [FGF10_Y161_YF]
2. LANNEYFFRVC
3. AHPGEYGAEAL [HBA1_Y25_A22P]
4. MTRDIYETDYY [INSR_Y1185]

0.961
1.38
0.563
1.02
